Just for reference, PubChem BioAssay (Tox21) is where these values come from.

Experiment: qHTS assay to identify small molecule antagonists of the thyroid receptor (TR) signaling pathway (AID 743065); also: nearly all actives have a fitted effect of over 55% in size
Settings: GH3.TRE-Luc, T3-stimulated luciferase inhibition, 23.5 h; series mostly up to 70.3 µM
Records with an inconclusive call do not appear. Active and inactive are the calls of the source. Calls follow the shape of the dose curve; as a rule, active = well fitted inhibition curve with a large enough effect in the repeat runs; inconclusive = weak or mixed curves; inactive = no such curve, though single readings can be large or run the other way.
One label from this list, please: active, inactive

Worked examples, 5 compounds total:
What did this assay record as the result for CN(C)CCC(c1ccccc1)c1ccccn1 (stereo unspecified) ? inactive

Please state the recorded outcome for this compound: O=C(O)c1cc(C(=O)O)cc(S(=O)(=O)O)c1 inactive

# fetch the recorded call for FC(F)(F)c1ccc(Cl)c(Cl)c1 here inactive

How did this test come out for C/C=C1/CC2C=CC1C2 (stereo unspecified) ? inactive

Any idea what this test logged for O=c1[nH]c(=O)n([C@H]2C[C@H](O)[C@@H](CO)O2)cc1Br ? inactive

---
Which outcome did this test record for the compound O=C(O)CC(C(=O)O)C(CC(=O)O)C(=O)O (stereo unspecified) ? inactive

For CCc1cccc(C)c1N , what call appears in the results of this test? inactive

Recorded call for OC[C@H]1O[C@@](CO)(O[C@H]2O[C@H](CO)[C@@H](O)[C@H](O)[C@H]2O)[C@@H](O)[C@@H]1O ? inactive

Returns: the outcome recorded for Nc1ccccc1[N+](=O)[O-] in this assay. inactive

For O=C(O)c1cc(O)c(O)c(O)c1 , what call appears in the results of this test? inactive

Query: recorded result category for CCCCCC1=CCCC1=O in this test inactive

Which outcome did this test record for the compound C=CCNC(N)=S ? inactive

Fill in: this test's call for O=c1[nH]c(=O)n([C@H]2CCCO2)cc1F is ___ inactive

Tell me the assay call for O=P(OC(CCl)CCl)(OC(CCl)CCl)OC(CCl)CCl please. active

Which outcome was assigned to O=C(O)CCCCCCCCCCC(=O)O in this test? inactive

Assay outcome for O=C(O)c1ccc2c(c1)C(=O)OC2=O : what was it? inactive

Hello, I am checking results. What call was entered for Cc1cccc(O)c1 ? inactive

Recorded test outcome, item O=C(O)[C@H](O)[C@@H](O)[C@H](O)[C@H](O)CO inactive

Which outcome did this test record for the compound CCCCN(CCCC)CCCC ? inactive

// return assay outcome for Cc1ccc2oc(=O)ccc2c1 inactive
